The reported measurements were obtained from PubChem BioAssay.

- tested-on: Fibroblast growth factor 2 (Homo sapiens)
- assay-name: FGF2 binders on small-molecule microarrays, primary screen, biochemical, small-molecule microarray, 635/667 nm fluorescence (AID 1133)
- run-parameters: small-molecule microarray binding, FGF2, fluorescence 635/667; higher = more signal
Would you mind labelling by composite z-score? At or over 0.001 is Satisfied, under is Not satisfied.

Some solved cases for reference:
[[record]]
molecule = "O=C1O[C@H](c2ccccc2)[C@H](c2ccccc2)N2[C@H]1[C@@H](C(=O)O)[C@]1(C(=O)Nc3ccc(C#CC4(O)CCCCCC4)cc31)[C@H]2c1ccc(O)cc1"
tested_on = "Fibroblast growth factor 2 (Homo sapiens)"
label_class = "Not satisfied"

[[record]]
molecule = "CCOC(=O)C[C@H]1[C@H](OC(=O)c2cc3ccccc3oc2=O)[C@@H](NC(=O)c2ccc3ccccc3c2)c2cc(OCCCO)ccc2N1C(=O)Cc1ccc(OC)cc1"
tested_on = "Fibroblast growth factor 2 (Homo sapiens)"
label_class = "Satisfied"

[[record]]
molecule = "C=C(CCCC)/C(=C/C[C@H](OC(C)=O)c1ccc(OCCO)cc1)c1cc(C(=O)OC)ccc1OC"
tested_on = "Fibroblast growth factor 2 (Homo sapiens)"
label_class = "Satisfied"

[[record]]
molecule = "CCOC(=O)C=Cc1cc(F)ccc1O"
tested_on = "Fibroblast growth factor 2 (Homo sapiens)"
label_class = "Satisfied"

[[record]]
molecule = "COCCOC(=O)N1C(=O)[C@@]2(c3cc(C#CCC(C(=O)OC)C(=O)OC)ccc31)[C@H](c1ccc(O)cc1)N1[C@H](c3ccccc3)[C@H](c3ccccc3)OC(=O)[C@H]1[C@@H]2C(=O)NC[C@H](O)c1ccccc1"
tested_on = "Fibroblast growth factor 2 (Homo sapiens)"
label_class = "Not satisfied"

[[record]]
molecule = "CCCNC(=O)[C@@]1(C)c2ccccc2C(=O)N(Cc2ccccc2)[C@H]1c1ccc(CO)cc1"
tested_on = "Fibroblast growth factor 2 (Homo sapiens)"
label_class = "Not satisfied"

[[record]]
molecule = "Cc1ccc(S[C@]2(C(=O)NC(C)C)CC(=O)N(C(C)C)[C@@H]2c2ccc(CO)cc2I)cc1"
tested_on = "Fibroblast growth factor 2 (Homo sapiens)"
label_class = "Not satisfied"

[[record]]
molecule = "C=C(/C(=C/C[C@H](OC(=O)c1ccncc1)c1cccc(OCCO)c1)c1cnc2ccccc2c1)C(C)C"
tested_on = "Fibroblast growth factor 2 (Homo sapiens)"
label_class = "Satisfied"

[[record]]
molecule = "COC(=O)C1=CC(CCCO)=CC(C)N(Cc2cccc(OC(F)(F)F)c2)C=C1C(=O)OC (stereo not given)"
tested_on = "Fibroblast growth factor 2 (Homo sapiens)"
label_class = "Not satisfied"

[[record]]
molecule = "COCCCNC(=O)[C@@]1(c2ccc([N+](=O)[O-])cc2)CC(=O)N(C(C)C)[C@@H]1c1ccc(CO)cc1"
tested_on = "Fibroblast growth factor 2 (Homo sapiens)"
label_class = "Satisfied"


Would you say COc1ccc(C(O)C2C=CC3C(=O)N(c4ccccc4)C(=O)C3N2Nc2ccc(C(C)C)cc2)c2ccccc12 (stereo not given) shows composite z-score at minimum 0.001?
Not satisfied

Could you verify whether the entry CCOC(=O)C[C@H]1[C@H](OC(=O)c2ccccc2-c2ccccc2)[C@@H](NC(=O)c2ccc3ccccc3n2)c2cc(OCCCO)ccc2N1C(=O)c1ccccc1 shows composite z-score of no less than 0.001?
Satisfied

Reported composite z-score at or above 0.001? C=C(/C(=C/C[C@@H](OC(C)=O)c1ccc(OCCO)cc1)c1cc(C(=O)OC)ccc1OC)C(C)C
Satisfied

Is it the case that CCCCCCCCCCC(O)C1C=CC2C(=O)N(C)C(=O)C2N1Nc1cc(OC)c(OC)c(OC)c1 (stereo not given) has composite z-score reaching or exceeding 0.001?
Not satisfied

Decide: is the reported value of composite z-score for COc1ccc(CCNC(=O)[C@@]2(Cc3ccccc3I)c3ccccc3C(=O)N(Cc3ccccc3Cl)[C@H]2c2ccc(CO)cc2)cc1 equal to or greater than 0.001?
Satisfied

====

Each record here notes measured z-score.
- assay-name: basal 3T3-L1 adipocyte mitochondrial potential changes, profiling panel, cell-based, JC-1 fluorescence, 3T3-L1 adipocytes, 24 h, 100 nL compound (AID 1168); note: test concentration not given here
- run-parameters: JC-1 mitochondrial fluorescence, higher = more signal, called active from +8 up or from −8 down
Answer using only a numeral; do not append any unit.

[[record]]
compound = "O=C1O[C@H](c2ccccc2)[C@H](c2ccccc2)N2[C@H]1[C@@H](C(=O)O)[C@]1(C(=O)Nc3ccc(C#CC4(O)CCCCCC4)cc31)[C@H]2c1ccc(O)cc1"
recorded_metric = "z-score"
observed_measurement = -0.559

[[record]]
compound = "CCOC(=O)C1=CC[C@@H](c2ccccc2)N(S(=O)(=O)c2ccc(C)cc2)[C@H]1C=Cc1ccccc1"
recorded_metric = "z-score"
observed_measurement = -0.489

[[record]]
compound = "[N-]=[N+]=NCc1ccccc1[C@H]1OC(c2ccc(OCCCO)cc2)=N[C@@]1(Cc1ccccc1)C(=O)NCCN1CCOCC1"
recorded_metric = "z-score"
observed_measurement = -0.0131

[[record]]
compound = "CN1C(=O)C2C=CC(C(O)c3cc(C(F)(F)F)cc(C(F)(F)F)c3)N(NC(=O)OC(C)(C)C)C2C1=O (centres undefined)"
recorded_metric = "z-score"
observed_measurement = 1.03

[[record]]
compound = "COc1ccc([Si](C)(C)[C@H]2[C@H](CCO)O[C@@]3(C(=O)N(Cc4ccccc4)c4ccc(N5CCOC5=O)cc43)[C@@H]2C)cc1"
recorded_metric = "z-score"
observed_measurement = 0.69

[[record]]
compound = "COC(=O)C1=CC(CCCO)=CC(c2ccc(CN3CCCC3)cc2)N(Cc2cc3c(cc2Br)OCO3)C=C1C(=O)OC (centres undefined)"
recorded_metric = "z-score"
observed_measurement = -0.251

[[record]]
compound = "CC1CC/C=C\\[C@H]2OC34C=CCN(C(C)(C)C)C(=O)[C@H]3N(C(CO)C(C)C)C(=O)[C@@H]4C2C(=O)O1 (some centres undefined)"
recorded_metric = "z-score"
observed_measurement = -0.295

[[record]]
compound = "CN1C(=O)C2C=CC(C(O)c3ccc(F)cc3)N(NC(=O)OC(C)(C)C)C2C1=O (centres undefined)"
recorded_metric = "z-score"
observed_measurement = -0.517

[[record]]
compound = "C=CCNC(=O)[C@@H]1[C@H]2C(=O)O[C@H](c3ccccc3)[C@H](c3ccccc3)N2[C@H](c2ccc(OCCO)cc2)[C@@]12C(=O)N(C(=O)OCCOC)c1ccc(C#CCCO)cc12"
recorded_metric = "z-score"
observed_measurement = 1.27

[[record]]
compound = "O=C(N1CCOCC1)[C@@]1(CCS(=O)(=O)c2ccccc2)N=C(c2ccc(OCCCO)cc2)O[C@H]1c1ccccc1"
recorded_metric = "z-score"
observed_measurement = -0.277


According to the records, this compound COCCOC(=O)N1C(=O)[C@@]2(c3cc(C#CCCO)ccc31)[C@H](C(=O)N1CCCCCCC1)[C@H]1C(=O)O[C@H](c3ccccc3)[C@H](c3ccccc3)N1[C@@H]2c1ccccc1OCCO displays z-score of -0.0643

Short answer for C=CCNC(=O)[C@H]1[C@@H]2C(=O)O[C@@H](c3ccccc3)[C@@H](c3ccccc3)N2[C@@H](c2ccc(OCCO)cc2)[C@]12C(=O)Nc1ccc(C#CCNC(N)=O)cc12 : z-score was -0.657

Notebook: CN1C(=O)[C@@H]2[C@@H](CC(COc3ccccc3)=C([C@H](O)CCc3ccccc3)[C@@H]2CO)C1=O , z-score read as 0.813

Record C=C(CCCC)C(=O)CC[C@@H](OC(=O)c1cccnc1)c1ccc(OCCO)cc1 , field z-score: -0.188

====

- System: PRMT1 (protein arginine N-methyltransferase 1)
- assay-name: PRMT1 binders on small-molecule microarrays, primary screen, biochemical, small-molecule microarray, 635 nm fluorescence (AID 1088);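 note: binding of Prmt1 protein to compounds spotted on small-molecule microarray slides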
- run-parameters: small-molecule microarray binding, higher = more signal
recorded-metric: composite z-score

These solved cases illustrate the format of a correct answer.
[[record]]
molecule = "Cc1cccc([C@H]2C[C@H]3C(I)=C[C@@H]2C(=O)[C@]32CO2)c1"
observed_measurement = -0.614

[[record]]
molecule = "C=CCC(OC(C)=O)[C@@H]1[C@@H](N(Cc2ccc(-c3cccc(C(F)(F)F)c3)o2)C(=O)c2ccc(C)cc2)c2cc(OCCCO)ccc2N1C(=O)Cc1ccc(OC)cc1 (some centres not stated)"
observed_measurement = -0.118

[[record]]
molecule = "C=C(C)[C@@H]1CC=C(C(O)C2C=CC3C(=O)N(c4ccccc4)C(=O)C3N2Nc2ccc(C#N)cc2)CC1 (some centres not stated)"
observed_measurement = 1.54

[[record]]
molecule = "C=C[C@@H](OC)[C@H](OC(=O)Nc1ccc(OC)cc1)c1ccc(OC)c(O)c1"
observed_measurement = -0.391

[[record]]
molecule = "CCCC=C(CCC)[C@@H](NC(=O)CCc1ccccc1)c1ccc(C(F)(F)F)cc1"
observed_measurement = 1.1

[[record]]
molecule = "CC(C)C(=C=CC[C@@H](O)c1cccc(OCCO)c1)C[C@@H](O)c1ccccn1"
observed_measurement = 0.504


response.value for C=C(C(=O)CC[C@H](OC(=O)c1ccccc1-c1ccccc1C(=O)O)c1ccccc1OCCO)C(C)C (field: composite z-score) = 1.41
